Entry source: patent US20190292155A1

Documented pIC50 across a set of compounds
# target_of_assay: human complement factor D (Homo sapiens, UniProt P00746)
# Construct: purchased R&D Systems 1824-SE
# Sequence (P00746 26-253): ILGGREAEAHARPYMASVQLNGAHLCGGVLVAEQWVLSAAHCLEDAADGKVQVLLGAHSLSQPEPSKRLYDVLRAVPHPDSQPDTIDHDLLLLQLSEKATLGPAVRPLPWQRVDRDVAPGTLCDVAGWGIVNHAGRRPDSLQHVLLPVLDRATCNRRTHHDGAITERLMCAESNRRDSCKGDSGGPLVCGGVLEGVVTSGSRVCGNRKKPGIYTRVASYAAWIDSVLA
# run_description: In vitro enzyme inhibition of human complement factor D (Z-Lys-SBzl/DTNB, A405)
# Type: biochemical
# assay_context: biochemical assay, substrate Z-Lys-SBzl; read-out: CFD IC50
pIC50: −log10 of the molar value.
measured_endpoint: pIC50

CC(O)c1nn(CC(=O)N(CC(=O)NCc2cccc(Cl)c2F)C2CC2)c2ccccc12 (stereo not shown)	5.00 to 6.00
C[C@H](C(=O)NCc1cccc(Cl)c1F)N(C(=O)Cn1nc(C(N)=O)c2ccccc21)C1CC1	5.00 to 6.00
NC(=O)n1cc(NC(=O)N(CC(=O)NCc2cccc(Cl)c2F)C2CC2)c2ccccc21	6.00 to 7.00
NC(=O)c1nn(CC(=O)N(CC(=O)NCc2cc(F)cc(Cl)c2)C2CC2)c2ccccc12	6.00 to 7.00

---

# target_of_assay: human complement factor D (Homo sapiens)
# Construct: purchased R&D Systems 1824-SE
# run_description: In vitro enzyme inhibition of human complement factor D (Z-Lys-SBzl/DTNB, A405)
# Type: biochemical
Documented IC50 across a set of compounds
measured_endpoint: IC50

NC(=O)c1nn(CC(=O)N(CC(=O)NCc2cccc(Cl)c2F)C2CC2)c2cc(Cl)ccc12	100 to 1000 nM
CC(CO)N(CC(=O)NCc1cccc(Cl)c1F)C(=O)Cn1nc(C(N)=O)c2ccccc21 (stereo not shown)	100 to 1000 nM
NC(=O)c1nn(CC(=O)N(CC(=O)NCc2cccc(Cl)c2F)C2CC2)c2cc(F)ccc12	100 to 1000 nM
CC(CCO)N(CC(=O)NCc1cccc(Cl)c1F)C(=O)Cn1nc(C(N)=O)c2ccccc21 (stereo not shown)	100 to 1000 nM

---

# target_of_assay: human complement factor D (Homo sapiens, UniProt P00746)
# Construct: purchased R&D Systems 1824-SE
# run_description: In vitro enzyme inhibition of human complement factor D (Z-Lys-SBzl/DTNB, A405)
# Assay type: biochemical
# assay_context: biochemical assay, substrate Z-Lys-SBzl; read-out: CFD IC50
Documented IC50 across a set of compounds
measured_endpoint: IC50

NC(=O)c1nn(CC(=O)N(CC(=O)NCc2cccc(Cl)c2F)C2CC2)c2cnccc12 [Example 40]	< 100 nM
N#Cc1cc(Cl)c(F)c(CNC(=O)CN(C(=O)Cn2nc(C(N)=O)c3ccccc32)C2CC2)c1 [Example 90]	1000 to 10000 nM
NC(=O)c1nn(CC(=O)N(CC(=O)NCc2ccccc2F)C2CC2)c2ccccc12 [Example 115]	1000 to 10000 nM
NC(=O)n1nc(CC(=O)N(CC(=O)NCc2cccc(Cl)c2F)C2CC2)c2ccccc21 [Example 8]	< 100 nM
CC(CC(N)=O)N(CC(=O)NCc1cccc(Cl)c1F)C(=O)Cn1nc(C(N)=O)c2ccccc21 (stereo not shown) [Example 76]	100 to 1000 nM
NC(=O)c1nn(CC(=O)N(CC(=O)Nc2cccc(Cl)n2)C2CCNCC2)c2ccccc12 [Example 17]	1000 to 10000 nM
NC(=O)c1nn(CC(=O)N(CC(=O)NCc2cc(Cl)cc3cn[nH]c23)C2CC2)c2ccccc12 [Example 109]	1000 to 10000 nM
NC(=O)c1nn(CC(=O)N(CC(=O)NCc2cccc(Br)c2F)C2CC2)c2ccccc12 [Example 120]	< 100 nM
NC(=O)c1nn(CC(=O)N(CC(=O)NCc2ccc(F)c(Cl)c2)C2CC2)c2ccccc12 [Example 108]	1000 to 10000 nM
NC(=O)c1nn(CC(=O)N(CC(=O)NCc2cccc(Cl)c2F)C2CC2)c2cc(C(F)(F)F)ccc12 [Example 94]	100 to 1000 nM
NC(=O)c1nn(CC(=O)N(CC(=O)NCc2cccc(Cl)c2F)Cc2ccsc2)c2ccccc12 [Example 27]	1000 to 10000 nM
N#Cc1cc(Cl)cc(CNC(=O)CN(C(=O)Cn2nc(C(N)=O)c3ccccc32)C2CC2)c1 [Example 133]	1000 to 10000 nM
NC(=O)c1nn(CC(=O)N(CC(=O)NCc2cccc(F)c2F)C2CC2)c2ccccc12 [Example 132]	100 to 1000 nM
NC(=O)n1nc(CC(=O)N(CC(=O)Nc2cccc(Cl)n2)C2CCCC2)c2ccccc21 [Example 19]	100 to 1000 nM
NC(=O)c1nn(CC(=O)N(CC(=O)NCc2cc(Cl)cc(Cl)c2)C2CC2)c2ccccc12 [Example 119]	100 to 1000 nM
NC(=O)c1nn(CC(=O)N(CC(=O)NCc2cccc(Cl)c2F)C2CCNC2)c2ccccc12 (stereo not shown) [Example 37]	1000 to 10000 nM
